Recorded values, source the supplement of paper PMC12042874.

Assay: amyloid nucleation score (Sup35N fusion, yeast selection) (log enrichment); library NNK3; higher = more nucleation; inactive = no reads after selection;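 note: zero at mode of non-aggregating sequences after 7 days selection at 30°C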
propertyName: amyloid nucleation score

// below: answered sequences
INSERT INTO measurements (chainsequence, propertyname, testresult) VALUES
  ('FRVNKYNISFLVRQSGIWLA', 'amyloid nucleation score', 'inactive'),
  ('SRLWYSPGDYQVFKVRLHIW', 'amyloid nucleation score', 'inactive'),
  ('TMIFYYRYRLVCDGLFFCGT', 'amyloid nucleation score', 0.034),
  ('VSCESECLLLMIKKYFGSDS', 'amyloid nucleation score', 0.12),
  ('IVTVLNSVLGKGFQQAPRRG', 'amyloid nucleation score', 'inactive'),
  ('IKVEATRSAVASLRLHI', 'amyloid nucleation score', 'inactive'),
  ('LFVYHCYIFSMRSRCMSHLY', 'amyloid nucleation score', 'inactive'),
  ('SFNFSPCVYTCVRMCIWGYF', 'amyloid nucleation score', 'inactive'),
  ('GGPSYSLSLWLSKVSCLQGG', 'amyloid nucleation score', 0.63),
  ('TWGPHLIPLFNNL', 'amyloid nucleation score', 'inactive');

Problem: Look up amyloid nucleation score: DDFSVPTDLIDVRRVS
Solution: -0.047

Problem: Would you mind telling me what amyloid nucleation score value was observed for GSRCCNSAFNKECLSITEHS ?
Solution: -0.485

###

Assay: amyloid nucleation score (Sup35N fusion, yeast selection) (log enrichment); library NNK2; higher = more nucleation; inactive = no reads after selection
Attribute: amyloid nucleation score
Please give only the number in your answer, with no unit.

Illustrative cases are given below, each with its answer.
INSERT INTO assay_data (chainsequence, propertyname, testresult) VALUES
  ('VTLSGYRVPLTLWDFGRCLC', 'amyloid nucleation score', -0.565),
  ('YWFKSFSWFPVNIVIYNMEK', 'amyloid nucleation score', 5),
  ('LVSVLGSTFLGSAWDTEGWY', 'amyloid nucleation score', -0.579);

Problem: Given the sequence SSAWYFSLGTDIAFDAGYSA , what is its reported amyloid nucleation score?
Solution: -0.108

Problem: What value of amyloid nucleation score has been recorded for this entry: GTTCGSSCRVVSLMKENVGA
Solution: -0.367

Problem: Can you share its amyloid nucleation score? I mean this sequence: STVICSVYFDVVASFDIVYI
Solution: 1.39

Problem: // amyloid nucleation score lookup, key: NFPMSSFKEEIWLRTRVPLC
Solution: 0.691

Problem: Fill in: amyloid nucleation score of SLHLRRYIFNT is ___
Solution: 7.34

Problem: Consider the sequence shown here: VKMLSLKSIHLSYFCECASW What is its recorded amyloid nucleation score?
Solution: 0.28

###

Experiment: amyloid nucleation score (Sup35N fusion, yeast selection) (log enrichment); library NNK1; higher = more nucleation; inactive = no reads after selection
Label true (1) for high-side amyloid nucleation score (at or above 0.4) and false (0) for low-side amyloid nucleation score (below it).

Recorded results for 4 substances are shown here.
INSERT INTO results (substance, group) VALUES
  ('VLVHKDSG', 'false (0)'),
  ('GTMVSLKTGFKDTSRLLNWS', 'false (0)'),
  ('SCNCHWY', 'true (1)'),
  ('EPIYCFCDCNGSRWALYVSV', 'true (1)');

Problem: Check if amyloid nucleation score >= 0.4 (inclusive). Item: RHADIWSDFPR
Solution: true (1)

Problem: # check: amyloid nucleation score of TTVANTSAVFCEAVCKGMQK is greater than or equal to 0.4
Solution: false (0)

###

Experiment: amyloid nucleation score (Sup35N fusion, yeast selection) (log enrichment); library NNK3; higher = more nucleation; inactive = no reads after selection
propertyName: amyloid nucleation score

The following substances have reported results that may help.
INSERT INTO results (substance, testresult) VALUES
  ('RLLSKVSNFREYTSSSVPDV', 'inactive'),
  ('VVRFLDQKMYVVGLLSGS', 'inactive'),
  ('RKHLRPQSMRVDSGETLRVL', 'inactive'),
  ('NKEMIFANYSAGRRYVRYST', 'inactive'),
  ('TEDGPYTIWH', 'inactive'),
  ('IQIVSWQSAL', 'inactive'),
  ('NNMVHVVDKFFSLILVMVFS', 'inactive'),
  ('RVDSYVSMTYHIRWFFVRTE', 'inactive');

Problem: amyloid nucleation score for VVGLWTNS ?
Solution: inactive

Problem: Give the measured amyloid nucleation score of LRLVTMSYWPRYLLRRKCIR .
Solution: inactive

Problem: So what does the record say about amyloid nucleation score for LDYNVRVGIVSRFTQLTHVN ?
Solution: inactive

Problem: Request the reported amyloid nucleation score associated with PWRCKRWHFYMYVDCANLRQ
Solution: inactive

###

Assay: amyloid nucleation score (Sup35N fusion, yeast selection) (log enrichment); library NNK2; higher = more nucleation; inactive = no reads after selection
Tag: satisfied if measured amyloid nucleation score is not below 0.9, not satisfied if it is.

Look over these answered cases.
INSERT INTO assay_data (substance, group) VALUES
  ('GKGANARLCIRYDITAVEGT', 'satisfied'),
  ('YLVGRYETTVSTKMNKMRCW', 'not satisfied'),
  ('RYNFYRLNLSRAVASDETCV', 'not satisfied');

Problem: Answer whether amyloid nucleation score of AFQWYLM is greater than or equal to 0.9.
Solution: not satisfied

Problem: Tell me whether amyloid nucleation score is at least 0.9 here: ALKNLHAHTG
Solution: not satisfied

###

Let's look at some sequences and their measured amyloid nucleation score.
Experiment: amyloid nucleation score (Sup35N fusion, yeast selection) (log enrichment); library NNK2; higher = more nucleation; inactive = no reads after selection
Reply briefly: the number, and no unit.

Field: example entries. Status: answers known.
INSERT INTO assay_data (chainsequence, testresult) VALUES
  ('SISCSADFVFNCSHGHNTVP', 6.17),
  ('SVVEEKIGEFTWSWDTDSAN', 0.568),
  ('YMASWVSSAGSFV', 1.05);

Problem: I'd like to know its amyloid nucleation score. The sequence in question is RMFVLLNRPNGLSCKGMFRG
Solution: 0.446

Problem: Quick one: amyloid nucleation score for KRWLKMWKRWQRRFMCGLLS ?
Solution: 0.472

Problem: Could you tell me which amyloid nucleation score is on file for FSDIWPLRP ?
Solution: 0.806

Problem: // query amyloid nucleation score value for entry RWYSTRCTVEFINATSIVRA
Solution: -0.531

Problem: Sample RRDHHMPPITPGCFRLYWRI — what was its amyloid nucleation score?
Solution: 0.237

Problem: Name the reported amyloid nucleation score value associated with the sequence KVINFGCTTFDYGYATYFGQ
Solution: 6.66

Problem: Fill in: amyloid nucleation score of PSYMACSA is ___
Solution: -0.187

###

Test: amyloid nucleation score (Sup35N fusion, yeast selection) (log enrichment); library NNK1; higher = more nucleation; inactive = no reads after selection
Respond with True for amyloid nucleation score values of -0.2 and above, False for values below.

INSERT INTO assay_data (substance, group) VALUES
  ('KMLSSQLITRPFGGPKRHKP', 'True');

Problem: For this substance, is measured amyloid nucleation score -0.2 or higher? VEYSVTCFLNYY
Solution: True

###

Experiment: amyloid nucleation score (Sup35N fusion, yeast selection) (log enrichment); library NNK2; higher = more nucleation; inactive = no reads after selection
propertyName: amyloid nucleation score

Examples from the recorded data:
INSERT INTO assay_data (chainsequence, testresult) VALUES
  ('SMRVVCYWVLRW', 3.16),
  ('VKSLLRDLCGPGCMLYMIVH', -0.11),
  ('RIYGILVSFYCIVYDGFSGG', 1.9),
  ('QMICFHSWLGGSSLTVFHHC', 3.84),
  ('RFWPWLLVRPNFPMLSQ', 0.216),
  ('VHIMEDVMRRFCDRCTCRTW', 0.562),
  ('AMGMRTSYCGC', 'inactive'),
  ('YKYSCFDRG', 'inactive'),
  ('KHRRYFFCVGSIRWASVYKT', 'inactive'),
  ('IAKPSVRHMYSFHVVDKTGH', 'inactive');

Problem: Please report the recorded amyloid nucleation score for QAWYRLVCIASYLFYEGFNV .
Solution: 0.193

Problem: Consider the sequence GLSGMEGKLS and give its measured amyloid nucleation score.
Solution: -0.398

Problem: Dear colleague, I am looking for the recorded amyloid nucleation score of the following sequence: TLLFHTRSYVYICVLVWKQH
Solution: 0.049

Problem: Query (sequence): MNASDIKTFKL ; field requested: amyloid nucleation score
Solution: -0.531

Problem: Find the recorded amyloid nucleation score belonging to RCVWINVGCSPILIGYAAHY and report it.
Solution: 8.73

Problem: Entry under review: SHSVKVMFNGLRVRL . Reported amyloid nucleation score?
Solution: -0.216

Problem: # query: amyloid nucleation score of entry VRSYNVKYCSRRNLICGDG
Solution: -0.019
